tested on: SK-OV-3 ovarian; assay: NCI-60 one-dose screen, 48 h (100 = growth as untreated, 0 = no growth, -100 = all killed); details: 10 µM
The panel holds about 83,000 compounds, 20% with a hit somewhere; the sample as a whole holds those more often.
EXPERIMENTAL_ENDPOINT: growth (%)
Use % as the unit, but write only the number.

INPUT: Bench note: what growth did CC(C)=CCc1ccc(O)c(=O)cc1C(C)C show?
OUTPUT: 18.5

INPUT: So what's the measured growth for this one? C#Cc1ccc(-n2c(/C=C/c3ccc(Cl)c(F)c3)nc3ncccc3c2=O)cc1
OUTPUT: -7.71

INPUT: Consider the molecule O=C(CSSCC(=O)c1ccc(Cl)cc1)c1ccc(Cl)cc1 and give its measured growth.
OUTPUT: 60

INPUT: Which growth is reported for this molecule? COc1ccc(-c2nn(-c3cccc(NC(=O)Nc4ccc(Cl)c(C(F)(F)F)c4)c3)cc2-c2ccncc2)cc1Cl
OUTPUT: 16.7

INPUT: Which growth value is on record for CN(CCc1ccccn1)c1ccccc1 ?
OUTPUT: 112

INPUT: // returns reported growth for input CCCCCCCCCCCCC1C/C=C\CCCC(=O)O1 (centres undefined)
OUTPUT: 95.5

INPUT: Recorded growth of O=C1/C(=C\c2ccccc2)CN(C(=O)c2ccccc2F)C/C1=C\c1ccccc1 , please.
OUTPUT: 36.6

INPUT: Consider the molecule shown here: CC(=O)OCc1cc(-c2nc3ccccc3[nH]c2=O)nn1-c1ccc(Cl)cc1 What is its recorded growth?
OUTPUT: 100

INPUT: May I ask what growth has been recorded for O=C1CC[C@@H]2CCCC[C@@H]2C1 ?
OUTPUT: 99.4

INPUT: // lookup growth for O=C(Nc1cccc(-n2cc(-c3ccncc3)c(-c3ccc(O)c(Cl)c3)n2)c1)c1ccc(N2CCOCC2)c(C(F)(F)F)c1
OUTPUT: 64.2

INPUT: Fill in the blank: the reported growth of O=[P@@]1(c2ccccc2)O[C@H](COCc2ccccc2)[C@@H](OCc2ccccc2)[C@H](OCc2ccccc2)[C@H]1O is ____.
OUTPUT: 38.7

INPUT: Field request: growth | item: COc1ccc2c(c1)N(CCO)C1=C(C(=O)OC1)C2c1cc(OC)c(OC)c(OC)c1 (centres undefined)
OUTPUT: 20.6

INPUT: Returns the measured growth for the input molecule. Input: COc1ccc(-c2nc(-c3nc4cc(Cl)c(F)cc4[nH]3)c3ccccn23)cc1
OUTPUT: 105

INPUT: Give its growth value. Item: COc1cccc(Cn2c(-c3nonc3N)nc3ccccc32)c1
OUTPUT: 6.27

INPUT: // lookup growth for Nc1nc(N)c2c(ccc3nccc32)[nH]1
OUTPUT: 58.8

INPUT: Entry COc1cc(Cc2cc(-c3ccc(Cl)cc3)n[nH]c2=O)ccc1O : reported growth = ?
OUTPUT: 98.6

INPUT: Request the reported growth associated with O=C(Nc1ccncc1)C(=O)c1cn(S(=O)(=O)c2cccc(Cl)c2)c2ccccc12
OUTPUT: 96.6

INPUT: Which growth value is on record for CSCCCNC(=O)c1ccc2c(c1)/C(=C/c1[nH]c(C)cc1C)C(=O)N2 ?
OUTPUT: 20.5

INPUT: I would be grateful if you could share the reported growth for CCN(CC)CCCC(C)Nc1ccc2ccc(Cl)cc2n1 (centres undefined) .
OUTPUT: 104

INPUT: Item CCOC(=O)c1ccc(NC(=O)Nc2ncc(Cl)cc2Cl)cc1 has what recorded growth?
OUTPUT: 100

INPUT: # growth lookup, item Cc1cccc2c1O/C(=C\c1ccc([N+](=O)[O-])o1)C2=O
OUTPUT: 45.1

INPUT: Can you look up the measured growth of CC1(C)N=C(N)N=C(N)N1c1ccc(CCc2ccccc2)c(Cl)c1 for me?
OUTPUT: 36.3

INPUT: Quick check: growth of CS(=O)(=O)Nc1cccc(-c2cc(-c3ccccc3Cl)c(C#N)c(N)n2)c1 ?
OUTPUT: 22

INPUT: Which growth is listed for CC(=O)n1c(-c2ccc(Cl)c(Cl)c2)cn(-c2ccc(Cl)cc2)c1=O ?
OUTPUT: 19.1

INPUT: Give the measured growth of COc1ccc(NC2=NC(C)(CO)CS2)cc1 (centres undefined) .
OUTPUT: 104

INPUT: // query growth value for entry O=C1OCC2=C1C(c1cccc(Cl)c1)c1cc3c(cc1N2CCO)OCO3 (centres undefined)
OUTPUT: 19.4

INPUT: Recorded growth of N#Cc1cc(-c2cc3ccccc3o2)oc1N , please.
OUTPUT: 17.3

INPUT: Report growth for CC[C@H]1CCC/C=C/[C@@H]2C[C@H](O)C[C@H]2[C@H](O)/C=C/C(=O)O1 please.
OUTPUT: 21.3

INPUT: Which growth is listed for Nc1c(C(=O)Nc2cccc(Br)c2)sc2nc3c(cc12)C(O)CCC3 (centres undefined) ?
OUTPUT: 21.8
